Tested on: T98G glioblastoma cell line
EXPERIMENT SUMMARY: IC50 against glioblastoma cell line T98G
Format: cell-based
OBSERVATION TYPE: IC50 (µM)
Give just the number in µM; leave the unit off.

Retrieve IC50 measured for "Cn1c(CCCC(=O)O)nc2cc(N(CCCl)CCCl)ccc21" and print it.
52

###

Test system: U251MG glioblastoma cell line
EXPERIMENT SUMMARY: IC50 against glioblastoma cell line U251MG
Format: cell-based
RECORDED CONDITIONS: Homo sapiens, U-251
OBSERVATION TYPE: pIC50
Conceptually, pIC50 converts a concentration in mol/L into minus its log10.

Retrieve pIC50 measured for Cn1c(CCCCCCC(=O)NO)nc2cc(N(CCCl)CCCl)ccc21 [EDO-S101] and print it.
5.18
